The next entries give measured IC50 for Syk tyrosine kinase (Homo sapiens).
Where a name gives a salt, the structure may show the parent alone.

compound	result
NCCNc1ncc(C(N)=O)c(Nc2cccc([N+](=O)[O-])c2)n1	≤ 100 nM

# query: IC50 of entry NC(=O)c1cnc(NC2CCCCC2N)nc1Nc1cc(Cl)cc(Cl)c1 (centres unmarked) [dihydrochloride]
≤ 100 nM
